Assay System: F-actin (skeletal muscle actin, polymerised) ( (rabbit or chicken skeletal …, UniProt P68135 1-377))
Measurement Name: Kd (µM)
Numbers only, in µM.

State the recorded Kd for every item in the following list.
1. N-CAP1, N-terminal fragment of human cyclase-associated protein 1 (original coiled coil and helical folded domain) (domain or fragment) MADMQNLVERLERAVGRLEAVSHTSDMHRGYADSPSKAGAAPYVQAFDSLLAGPVAEYLKISKEIGGDVQKHAEMVHTGLKLERALLVTASQCQQPAENKLSDLLAPISEQIKEVITFREKNRGSKLFNHLSAVSESIQALGWVAMAPKPGPYVKEMNDAAMFYTNRVLKEYKDVDKKHVDWVKAYLSIWTELQAYIKEFHTTGLAWSKTGPVAKELSGL
2. TD-N-CAP1, human CAP1 helical folded domain with the coiled coil (a.a. 1-29) replaced by the trimerization domain 2L6HC3_6 (other) GTKYKIKETLKRLEDSLRELRRILEELKEMLERLEKNPDKDVIVEVLKVIVKAIEASVENQRISAENQKALAESDGYADSPSKAGAAPYVQAFDSLLAGPVAEYLKISKEIGGDVQKHAEMVHTGLKLERALLVTASQCQQPAENKLSDLLAPISEQIKEVITFREKNRGSKLFNHLSAVSESIQALGWVAMAPKPGPYVKEMNDAAMFYTNRVLKEYKDVDKKHVDWVKAYLSIWTELQAYIKEFHTTGLAWSKTGPVAKELSGL

1. 0.91
2. 2.97

Batch request: Kd for each of the following binders.
1. ΔCC-N-CAP1, helical folded domain of human CAP1 with the coiled coil (a.a. 1-29) deleted (domain or fragment) GYADSPSKAGAAPYVQAFDSLLAGPVAEYLKISKEIGGDVQKHAEMVHTGLKLERALLVTASQCQQPAENKLSDLLAPISEQIKEVITFREKNRGSKLFNHLSAVSESIQALGWVAMAPKPGPYVKEMNDAAMFYTNRVLKEYKDVDKKHVDWVKAYLSIWTELQAYIKEFHTTGLAWSKTGPVAKELSGL
2. DD-N-CAP1, human CAP1 helical folded domain with the coiled coil (a.a. 1-29) replaced by the dimerization domain 2L4HC2_23 (other) GTRTEIIRELERSLREQEELAKRLKELLRELERLQREGSSDEDVRELLREIKELVEEIEKLAREQKYLVEELKRQDGYADSPSKAGAAPYVQAFDSLLAGPVAEYLKISKEIGGDVQKHAEMVHTGLKLERALLVTASQCQQPAENKLSDLLAPISEQIKEVITFREKNRGSKLFNHLSAVSESIQALGWVAMAPKPGPYVKEMNDAAMFYTNRVLKEYKDVDKKHVDWVKAYLSIWTELQAYIKEFHTTGLAWSKTGPVAKELSGL

[5.69, 3.42]
